binders and their reported koff
# Target Of Assay: T1, recombinant human CD70 (Flag-TNC-CD70) (human, UniProt P32970 39-193)
# T1 construct: extracellular domain; Captured by anti-Flag mAb in ELISA; as 'recombinant human CD70' immobilised on Biacore CM5 chips; TNC is for trimerisation; also called recombinant CD70; human recombinant CD70; not shown: Flag tag and TNC trimerisation domain
# T1 sequence (looked up): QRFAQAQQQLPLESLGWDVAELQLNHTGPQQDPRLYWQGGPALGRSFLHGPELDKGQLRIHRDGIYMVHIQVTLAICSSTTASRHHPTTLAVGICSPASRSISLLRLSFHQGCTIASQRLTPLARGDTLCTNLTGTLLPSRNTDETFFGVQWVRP
# Assay Explanation: Biacore; CD70 coated CM5 chip; Fab in periplasmic fraction
Use s⁻¹ as the unit, but write only the number.

35G2 Fab (Fab, V domains shown, Germlined 27B3 Fab, periplasmic fraction) VH: EVQLVESGGGLVQPGGSLRLSCAASGFTFSVYYMNWVRQAPGKGLEWVSDINNEGGTTYYADSVKGRFTISRDNAKNTLYLQMNSLKPEDTAVYYCARDAGYSNHVPIFDSWGQGTLVTVSS VL: QTVVTQEPSFSVSPGGTVTLTCGLKSGSVTSTNFPTWYQQTPGQAPRLLIYNTNSRHSGVPDRFSGSILGNKAALTITGAQADDEADYFCALFISNPSVEFGGGTQLTVLG	0.00017

// below: koff requested for another binder
May I ask what koff has been recorded for 36G2 Fab (Fab, V domains shown, Germlined 27B3 Fab, periplasmic fraction) VH: EVQLVESGGGLVQPGGSLRLSCAASGFTFSVYYMNWVRQAPGKGLEWVSDINNEGGTTYYADSVKGRFTISRDNAKNSLTLQMNSLRAEDTAVYYCVRDAGYSNHVPIFDSWGQGTQVTVSS VL: QAVVTQEPSLTVSPGGTVTLTCGLKSGSVTSDNFPTWYQQTPGQAPRLLIYNTNTRHSGVPDRFSGSILGNKAALTITGAQPEDESDYYCALFISNPSVEFGGGTQLTVLG ?
0.00011
